From: patent US20240116985A1

target: T1, full-length beta-Catenin (Uniprot ID P35222) (Homo sapiens (Human), UniProt P35222 2-781)
T1 construct: also called bCat; B-Catenin
T1 sequence: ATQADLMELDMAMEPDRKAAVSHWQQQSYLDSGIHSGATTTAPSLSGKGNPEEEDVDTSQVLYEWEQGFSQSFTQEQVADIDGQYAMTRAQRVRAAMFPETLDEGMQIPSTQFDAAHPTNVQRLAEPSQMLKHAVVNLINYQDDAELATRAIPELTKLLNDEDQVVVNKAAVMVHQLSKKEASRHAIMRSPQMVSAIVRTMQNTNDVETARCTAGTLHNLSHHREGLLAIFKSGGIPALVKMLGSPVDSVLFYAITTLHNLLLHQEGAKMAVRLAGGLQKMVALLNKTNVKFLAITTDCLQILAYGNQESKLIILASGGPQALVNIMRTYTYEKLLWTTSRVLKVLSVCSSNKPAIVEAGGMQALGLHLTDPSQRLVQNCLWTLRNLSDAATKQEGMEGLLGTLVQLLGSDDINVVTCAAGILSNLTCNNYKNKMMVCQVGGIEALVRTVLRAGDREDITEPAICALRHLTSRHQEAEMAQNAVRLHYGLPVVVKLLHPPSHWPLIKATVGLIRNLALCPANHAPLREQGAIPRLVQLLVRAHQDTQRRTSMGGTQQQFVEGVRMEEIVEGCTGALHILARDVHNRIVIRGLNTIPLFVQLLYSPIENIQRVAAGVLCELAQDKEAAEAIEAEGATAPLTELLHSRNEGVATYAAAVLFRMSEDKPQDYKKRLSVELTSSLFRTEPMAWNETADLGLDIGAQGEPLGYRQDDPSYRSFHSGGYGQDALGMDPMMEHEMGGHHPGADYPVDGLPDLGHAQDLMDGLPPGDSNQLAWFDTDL
assayProcedure: fluorescence polarization competition; 10 nM full-length beta-catenin + 10 nM 5FAM-TCF4(10-53) probe, peptide titrated
Starred links: 1 amine or outer side, 2 acyl side, 3 side chain; linkers in the order of their positions; H or OH if unused. Positions of bridges follow the written chain, without caps; N, C: chain ends. Non-standard residues stand in square brackets, D forms with d. Primed or numbered codes have the meaning given here. SeN″ = (S)-5-(((allyloxy)carbonyl)(methyl)amino)-2-amino-2-methylpentanoic acid (stapling residue), C=CCOC(=O)N(C)CCC[C@](C)(N[*:1])C(=O)[*:2]; B5(16) = 2-amino-2-(pent-4-en-1-yl)hept-6-enoic acid = 2,2-bis(4-pentenyl)glycine (stitching residue), C=CCCCC(CCCC=C)(N[*:1])C(=O)[*:2]; B5(23) = 2-amino-2-(pent-4-en-1-yl)hept-6-enoic acid (2,2-bis(4-pentenyl)glycine), stitching residue, C=CCCCC(CCCC=C)(N[*:1])C(=O)[*:2]; Phe(3-F) = N[C@@H](Cc1cccc(F)c1)C(=O)O; Bta = N[C@@H](Cc1csc2ccccc12)C(=O)O; αAllylPro = C=CC[C@@]1(C(=O)O)CCCN1; S8 = C=CCCCCCC[C@](C)(N)C(=O)O
Reported values of EC50 for individual entries
Give the value, in units of nM, as a plain number.

{"binder": "Ac-[αAllylPro]DA[B5(23)]DEAAFQ[S8]F[Bta]Q-NH2 (staple 1-4, 4-11, Stapled (stitched) peptide) [I-406]", "endpointName": "EC50", "unitOfMeasurement": "nM", "measValue": 94}
{"binder": "Ac-[αAllylPro]DA[B5(16)]DHAAFV[SeN″][Phe(3-F)][Bta]Q-NH2 (staple 1-4, 4-11; not fully specified; printed as Ac-PL3-Asp-Ala-B5-Asp-His-Ala-Ala-Phe-Val-SeN-3FF-BztA-Gln-NH2, Stapled (stitched) peptide) [I-398]", "endpointName": "EC50", "unitOfMeasurement": "nM", "measValue": 2160}
{"binder": "XDAXDHAAFVXFXQ (not fully specified; as printed: Ac-PL3-Asp-Ala-B5-Asp-His-Ala-Ala-Phe-Val-S8-3FF-BztA-Gln-NH2; N-terminal acetyl, C-terminal amide; staples PL3(1)-B5(4) and B5(4)-S8(11) by olefin metathesis, Stapled (stitched) peptide) [I-397]", "endpointName": "EC50", "unitOfMeasurement": "nM", "measValue": 2230}
{"binder": "Ac-[αAllylPro]DV[B5(23)]DEAAFQ[S8]F[Bta]Q-NH2 (staple 1-4, 4-11, Stapled (stitched) peptide) [I-410]", "endpointName": "EC50", "unitOfMeasurement": "nM", "measValue": 50}
{"binder": "Ac-[αAllylPro]DI[B5(23)]DEAAFQ[S8]F[Bta]Q-NH2 (staple 1-4, 4-11, Stapled (stitched) peptide) [I-407]", "endpointName": "EC50", "unitOfMeasurement": "nM", "measValue": 30}

Attention now turns to another entry.
May I ask what EC50 has been recorded for XDAXDHAAFQXFXQ (not fully specified; as printed: Ac-PL3-Asp-Ala-B5-Asp-His-Ala-Ala-Phe-Gln-S8-3FF-BztA-Gln-NH2; N-terminal acetyl, C-terminal amide; staples PL3(1)-B5(4) and B5(4)-S8(11) by olefin metathesis, Stapled (stitched) peptide) [I-399] ?
2500
